Could you label it Condition met if measured melting point is 100 °C or higher, and Condition not met otherwise?

Example entries and their recorded answers appear below.
[[record]]
compound = "Cc1cc(C(F)(F)F)n2nc(N)c(/N=N/c3ccccc3[N+](=O)[O-])c2n1"
class = "Condition met"

[[record]]
compound = "O=NN(CC(c1ccccc1)c1ccccc1)CC(c1ccccc1)c1ccccc1"
class = "Condition met"

[[record]]
compound = "FCOC(C(F)(F)F)C(F)(F)F"
class = "Condition not met"

[[record]]
compound = "O=Cc1cc(F)c(F)c(F)c1"
class = "Condition not met"

[[record]]
compound = "Cc1ccc(N)c(C)c1"
class = "Condition not met"


Form field: melting point at least 100 °C? Entry: CC12CCC3C(CCC4CC(C#N)CCC43C)C1CCC2=O (configuration not stated)
Condition met

Form field: melting point at least 100 °C? Entry: Cc1ccc(-c2csc(/C(C#N)=N\Nc3cccc([N+](=O)[O-])c3)n2)cc1
Condition met

---

Could you label it class 1 if measured melting point is 200 °C or higher, and class 0 otherwise?

[[record]]
compound = "CC(=NCc1ccccc1)c1c(O)c2ccccc2n(-c2ccccc2)c1=O"
class = "class 0"


Form field: melting point at least 200 °C? Entry: Cc1ccccc1Nc1[nH]c(=S)nnc1-c1ccccc1
class 1

Form field: melting point at least 200 °C? Entry: CC1=C(C)C(=O)C=CC1=O
class 0

Form field: melting point at least 200 °C? Entry: CC(=O)c1cc2c(cc1C)C(C)(C)C(C)CC2(C)C (configuration not stated)
class 0

Form field: melting point at least 200 °C? Entry: O=C(c1ccc(O)cc1)c1ccccc1F
class 0

Form field: melting point at least 200 °C? Entry: NC(=S)Nc1ccc(C(=O)O)cc1
class 1

Form field: melting point at least 200 °C? Entry: CCS(=O)(=O)c1cccnc1S(=O)(=O)NC(=O)Nc1nc(OC)cc(OC)n1
class 0

---

metric: melting point

Here's what some known entries look like.
[[record]]
compound = "CCCCOCCOC(C)=O"
metric = "melting point"
measured_value = "-63 °C"

[[record]]
compound = "ClCc1nnc(-c2ccc3ccccc3c2)o1"
metric = "melting point"
measured_value = "128 to 130 °C"

[[record]]
compound = "OC1OC(C2CCCCC2)Cc2ccccc21 (stereo not given)"
metric = "melting point"
measured_value = "87.2 to 90 °C"

[[record]]
compound = "CC(C)(N)P(=O)(O)O"
metric = "melting point"
measured_value = "287 to 290 °C"

[[record]]
compound = "O=S(=O)(Cl)c1cccc(Cl)c1Cl"
metric = "melting point"
measured_value = "61 to 63 °C"

[[record]]
compound = "NC(CC(=O)O)c1ccccc1 (racemic)"
metric = "melting point"
measured_value = "222 °C"


Reported melting point, compound O=CNNC=O : ____
156 °C

Reported melting point, compound S=c1nnc(-c2ccccc2)c(Nc2ccccc2Cl)[nH]1 : ____
314 °C

Reported melting point, compound O=C(NC(=O)c1c(F)cccc1F)Nc1ccc(Cl)cc1 : ____
239 °C

---

Below, each entry is listed alongside its reported melting point.
Numeric only. Scale: °C

Here's what some known entries look like.
[[record]]
compound = "Nc1ccc(N)c(N)c1"
measured_value = 97.3

[[record]]
compound = "CCCC(C)CC (centres undefined)"
measured_value = -119


Reported melting point, compound Cc1ccccc1N/N=C(\C#N)c1nc(-c2ccccc2)cs1 : ____
144

Reported melting point, compound O=C(N=c1sc(C(=O)c2cccs2)nn1-c1ccccc1[N+](=O)[O-])c1ccccc1 : ____
239

Reported melting point, compound Nc1cc(Cl)cc(Cl)c1O : ____
97

Reported melting point, compound CCCCCCCCCCCCCCCCCC(=O)Cl : ____
23

Reported melting point, compound COc1c(OC)c(OC(C)=O)c2cc(Cl)ccc2c1OC(C)=O : ____
91.5
